# key: entry, value: pIC50
target: Enoyl reducase (ENR) from Bacillus anthracis (BaENR) (Bacillus anthracis); test: biochemical; conditions: IC50
Sequence (A0A6L8PBX8 1-256): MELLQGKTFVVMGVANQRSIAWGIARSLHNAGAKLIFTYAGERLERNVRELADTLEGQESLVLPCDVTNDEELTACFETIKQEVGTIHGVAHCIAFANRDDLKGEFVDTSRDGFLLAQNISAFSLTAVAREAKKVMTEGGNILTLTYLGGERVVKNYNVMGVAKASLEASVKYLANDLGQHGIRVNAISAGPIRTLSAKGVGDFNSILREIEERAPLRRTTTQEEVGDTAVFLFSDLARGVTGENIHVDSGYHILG
Reminder that pIC50 means the negative base-10 logarithm of the concentration expressed in mol/L.

CCCc1ccc(Oc2cccc(C(=O)OC)c2)c(O)c1	5.70
CCCc1ccc(Oc2ccc(N)cc2)c(O)c1	5.06
CC(=O)Nc1ccc(Oc2ccc(Cl)cc2O)cn1	5.39
CCCc1ccc(Oc2ccc([N+](=O)[O-])cc2[N+](=O)[O-])c(O)c1	5.44

query: Fill in: pIC50 of "CCCc1ccc(Oc2ccc(C(N)=O)cc2Cl)c(O)c1" is ___
result: 5.96

query: Fill in: pIC50 of "CCCc1ccc(Oc2ccc(C(C)=O)cc2)c(O)c1" is ___
result: 6.10

###

# key: entry, value: IC50
biological target: UniProtKB A0A6L8PBX8; test: biochemical; conditions: IC50

Please review the following examples before continuing.
CCCc1ccc(Oc2cccc([N+](=O)[O-])c2)c(O)c1 [Compound 9, 2-(3-Nitrophenoxy)-5-propylphenol]	> 0.8 µM
O=[N+]([O-])c1ccc(Oc2ccccc2)c(O)c1 [Compound 2, 5-Nitro-2-phenoxyphenol]	> 50 µM
Oc1cc(Cl)ccc1Oc1ccc(-c2ccccc2)cc1 [Compound 7, 2-(Biphenyl-4-yloxy)-5-chlorophenol]	> 6.25 µM
CCCc1ccc(Oc2ccc([N+](=O)[O-])cc2)c(O)c1 [Compound 8, 2-(4-Nitrophenoxy)-5-propylphenol]	1.1 µM
O=[N+]([O-])c1ccccc1Oc1ccc(Cl)cc1O [Compound 5, 5-Chloro-2-(2-nitrophenoxy)phenol]	7.7 µM
Cc1ccc(S(=O)(=O)Nc2ccc(Oc3ccc(Cl)cc3O)cc2)cc1 [Compound 22]	> 12 µM
CCCc1ccc(Oc2ccc(C#N)cc2Cl)c(O)c1 [Compound 12]	> 0.8 µM

Then there is this compound:
query: Fill in: IC50 of CCCc1ccc(Oc2ccc([S+](C)[O-])cc2)c(O)c1 (centres unmarked) [Compound 43] is ___
result: 3.6 µM

###

target: UniProt A0A6L8PBX8; assay: biochemical; conditions: read-out: % inhibition at 1μM
# key: entry, value: inhibition at 1 µM
Field format: number, assumed %, no unit text.

Please review the following examples before continuing.
OCC(O)Cc1ccc(Oc2ccccc2)c(O)c1 (stereo not drawn) [Compound 26]	9.8
CCCc1ccc(Oc2ccc(Oc3ccc(CCC)cc3O)cc2)c(O)c1 [Compound 35]	10

Then there is this compound:
query: Fill in: inhibition at 1 µM of Oc1cc(Cl)ccc1Oc1cccc(Oc2ccc(Cl)cc2O)c1 [Compound 33] is ___
result: 9.9
